Some compounds, each annotated with its measured IC50.
target: CD73 on U138 neuroglioma cells (Homo sapiens, UniProt P21589)
Construct: U138 neuroglioma cells, which express CD73 on their surface; endogenous in cells; host or cells: U138 neuroglioma cells (ATCC)
Sequence (P21589 27-549): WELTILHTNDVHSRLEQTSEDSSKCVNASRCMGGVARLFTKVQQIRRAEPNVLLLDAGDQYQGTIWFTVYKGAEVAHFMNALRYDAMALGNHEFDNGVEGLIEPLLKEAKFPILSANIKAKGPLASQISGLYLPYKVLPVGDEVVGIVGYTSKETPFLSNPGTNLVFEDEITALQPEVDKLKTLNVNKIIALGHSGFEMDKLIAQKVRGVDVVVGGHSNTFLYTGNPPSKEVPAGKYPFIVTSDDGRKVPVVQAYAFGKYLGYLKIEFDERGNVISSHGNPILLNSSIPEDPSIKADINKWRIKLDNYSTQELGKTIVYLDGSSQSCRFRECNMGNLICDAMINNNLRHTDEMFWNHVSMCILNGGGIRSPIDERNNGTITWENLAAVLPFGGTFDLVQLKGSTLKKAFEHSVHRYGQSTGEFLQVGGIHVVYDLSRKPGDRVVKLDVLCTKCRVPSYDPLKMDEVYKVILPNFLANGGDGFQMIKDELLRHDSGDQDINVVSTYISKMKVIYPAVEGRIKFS
measurement.protocol: Inhibition of Ecto-5′-Nucleotidase Activity in U138 Neuroglioma Cells (Assay 2)
Type: cell-based
run.parameters: 50 μM CMP, 2 hr at 37° C., malachite green readout, read-out: Assay 2: IC50, inhibition of ecto-5′-nucleotidase activity in U138 neuroglioma cells

INSERT INTO results (compound, target, measurement) VALUES
  ('CCOC(=O)C(OC[C@H]1C[C@@H](n2nnc3c(N[C@@H]4CCOC4)nc(Cl)nc32)[C@H](O)[C@@H]1O)P(=O)(O)O (some centres unmarked) [Example 90]', 'CD73 on U138 neuroglioma cells (Homo sapiens, UniProt P21589)', '< 100 nM'),
  ('CCOC(=O)C(OC[C@H]1C[C@@H](n2nnc3c(N[C@H]4CCOC4)nc(Cl)nc32)[C@H](O)[C@@H]1O)P(=O)(O)O (some centres unmarked) [Example 91]', 'CD73 on U138 neuroglioma cells (Homo sapiens, UniProt P21589)', '< 100 nM');

Asked: IC50 for Nc1nc(Cl)nc2c1ncn2[C@@H]1O[C@H](COC(Cc2ccc(F)cc2)(C(=O)O)C(=O)O)[C@@H](O)[C@H]1O [Example 4] ?
Given back: < 100 nM

Asked: IC50 for Nc1nc(Cl)nc2c1ncn2[C@@H]1O[C@H](COC(COCc2ccccc2)(C(=O)O)C(=O)O)[C@@H](O)[C@H]1O [Example 6] ?
Given back: < 100 nM

Asked: IC50 for CCOC(=O)[C@](C)(OC[C@H]1O[C@@H](n2cnc3c(N)nc(Cl)nc32)[C@H](O)[C@@H]1O)P(=O)(O)O (single isomer, unassigned) [Example 9] ?
Given back: 100 to 1000 nM

Asked: IC50 for CC(C)CS(=O)(=O)[C@H](OC[C@H]1O[C@@H](n2cnc3c(N)nc(Cl)nc32)[C@H](O)[C@@H]1O)P(=O)(O)O (single isomer, unassigned) [Example 13] ?
Given back: 100 to 1000 nM

Asked: IC50 for CCOC(=O)[C@@H](OC[C@H]1O[C@@H](n2cnc3c(NC4CCCC4)nc(Cl)nc32)[C@H](O)[C@@H]1O)P(=O)(O)O (single isomer, unassigned) [Example 25a] ?
Given back: < 100 nM

Asked: IC50 for CCOC(=O)[C@H](OC[C@H]1O[C@@H](n2cnc3c(NC4CC4)nc(Cl)nc32)[C@H](O)[C@@H]1O)P(=O)(O)O (single isomer, unassigned) [Example 22] ?
Given back: < 100 nM
